- Test system: Trypanosoma brucei brucei
- test-description: WHO-TDR: Human African Trypanosomiasis (HAT)
- Assay type: functional, organism-based
- measurement-parameters: Squib-427
reported-property: IC50 (µg/mL)
Record the value in µg/mL, omitting the unit from your answer.

Which value of IC50 has been reported for O=C(CSc1ccc2nnc(-c3ccccn3)n2n1)NCC1CCCO1 (stereo unspecified) in the records?
3.3

Which value of IC50 has been reported for `O=C(CSc1ccc(F)cc1)N(CCCn1ccnc1)c1nc2c(F)cccc2s1` in the records?
4.62

Which value of IC50 has been reported for `Cc1cc(=O)[nH]c(-n2nc(C)cc2NC(=O)c2ccc(S(=O)(=O)N3CCCCC3)cc2)n1` in the records?
0.449

Which value of IC50 has been reported for `Cc1ccccc1Cn1cc(C(=O)Nc2cccc(Br)c2)ccc1=O` in the records?
3.86

###

- test-description: WHO-TDR: Cytotoxicity
- Format: toxicity, cell-based
- measurement-parameters: human, MRC5 cells
reported-property: IC50

Which value of IC50 has been reported for `CC(C)(C)n1ncc2c(=O)n(CCC(=O)NCc3ccccc3Cl)cnc21` in the records?
> 11.6 µg/mL

Which value of IC50 has been reported for `COc1ccccc1-c1nnc(NC(=O)c2ccc(S(=O)(=O)N(C)Cc3ccco3)cc2)o1` in the records?
5.89 µg/mL

Which value of IC50 has been reported for `CCCn1/c(=N/C(=O)C2=COCCO2)sc2c(C)ccc(OC)c21` in the records?
> 10.5 µg/mL

Which value of IC50 has been reported for `O=C(NCCc1ccc(Cl)cc1)c1csc(NS(=O)(=O)c2ccccc2)n1` in the records?
> 12.7 µg/mL

Which value of IC50 has been reported for `CN(Cc1ccco1)S(=O)(=O)c1ccc(C(=O)Nc2nc3c(s2)CSc2ccccc2-3)cc1` in the records?
> 14.9 µg/mL

###

- test-description: WHO-TDR: Cytotoxicity
- Assay type: toxicity, cell-based
- measurement-parameters: human, MRC5 cells
reported-property: IC50

Which value of IC50 has been reported for O=S(=O)(NCC(c1cccnc1)N1CCN(Cc2ccccc2)CC1)c1ccc(Cl)cc1 (stereo unspecified) in the records?
> 14.1 µg/mL

Which value of IC50 has been reported for `CN(C)CCCN(C(=O)c1ccc(S(=O)(=O)N(C)C2CCCCC2)cc1)c1nc2c(F)cccc2s1` in the records?
3.08 µg/mL

Which value of IC50 has been reported for `COC(=O)c1sc(-c2ccccc2)cc1NC(=O)CCS(=O)(=O)c1ccccc1` in the records?
> 9.7 µg/mL

Which value of IC50 has been reported for `O=C(Nc1nnc(-c2ccc3c(c2)OCCO3)o1)c1cc(-c2ccccc2)nc2ccccc12` in the records?
4.33 µg/mL

Which value of IC50 has been reported for `O=C(O)CCCCCN1C(=O)/C(=C\c2ccccc2O)SC1=S` in the records?
> 10.5 µg/mL

Which value of IC50 has been reported for `CS(=O)(=O)c1ccc2nc(N(Cc3cccnc3)C(=O)c3ccc4ccccc4c3)sc2c1` in the records?
> 14.2 µg/mL

Which value of IC50 has been reported for `NC(=O)c1cc(-c2ccccc2)sc1NC(=O)c1cc2ccccc2o1` in the records?
> 10.9 µg/mL

Which value of IC50 has been reported for CCCc1cc(=O)[nH]c(-n2nc(C)cc2NC(=O)C2CC(=O)N(c3ccc(C)c(C)c3)C2)n1 (stereo unspecified) in the records?
4.51 µg/mL

Which value of IC50 has been reported for `COc1ccc(CCNC(=O)Cc2csc(SCc3ccc(C)cc3)n2)cc1OC` in the records?
> 13.3 µg/mL

Which value of IC50 has been reported for O=C(c1ccc(Br)o1)C1C(=O)N(c2ccccc2)N=C1c1ccccc1 (stereo unspecified) in the records?
> 12.3 µg/mL

Which value of IC50 has been reported for `O=C(Nc1nnc(-c2ccno2)o1)c1nc2ccccc2s1` in the records?
> 9.4 µg/mL

Which value of IC50 has been reported for `CN(C)CCCN(C(=O)/C=C/c1ccccc1)c1nc2ccccc2s1` in the records?
3.81 µg/mL

Which value of IC50 has been reported for `CC(=O)c1cccc(Nc2nc(Nc3ccc(F)c(Cl)c3)nc(N3CCOCC3)n2)c1` in the records?
5.32 µg/mL

Which value of IC50 has been reported for `Cc1ccnc(Nc2ccc(NCCNC(=O)Nc3ccc(F)cc3)nn2)c1` in the records?
> 11.4 µg/mL

Which value of IC50 has been reported for CN1CCCc2cc(C(CNC(=O)c3ccc4c(c3)OCO4)N3CCOCC3)ccc21 (stereo unspecified) in the records?
11.2 µg/mL

Which value of IC50 has been reported for `COc1ccc(C)c2sc(N(Cc3cccnc3)C(=O)Cc3ccccc3)nc12` in the records?
> 12.1 µg/mL

Which value of IC50 has been reported for `Cc1cc(=O)n2c(-c3cccc(NC(=O)Nc4ccc(F)cc4)c3)csc2n1` in the records?
> 11.8 µg/mL

Which value of IC50 has been reported for `O=C(CSc1nnc(NC(=O)c2cccs2)s1)NCc1ccccc1Cl` in the records?
4.21 µg/mL

Which value of IC50 has been reported for `COc1ccccc1CNC(=O)CCc1csc(NC(=O)c2ccc(F)cc2)n1` in the records?
> 12.4 µg/mL

Which value of IC50 has been reported for `COc1ccc(Cl)c2sc(NC(=O)c3ccc(Cl)cc3Cl)nc12` in the records?
4.96 µg/mL

Which value of IC50 has been reported for Cc1ccc(S(=O)(=O)N(CC(O)CNCc2ccco2)c2ccc(F)cc2)cc1 (stereo unspecified) in the records?
> 16.2 µg/mL

Origin of measurements: ChEMBL document CHEMBL2093137
